- assayed_system: Oxytocin receptor (Rattus norvegicus) (UniProt P70536)
- Sequence (P70536 whole entry): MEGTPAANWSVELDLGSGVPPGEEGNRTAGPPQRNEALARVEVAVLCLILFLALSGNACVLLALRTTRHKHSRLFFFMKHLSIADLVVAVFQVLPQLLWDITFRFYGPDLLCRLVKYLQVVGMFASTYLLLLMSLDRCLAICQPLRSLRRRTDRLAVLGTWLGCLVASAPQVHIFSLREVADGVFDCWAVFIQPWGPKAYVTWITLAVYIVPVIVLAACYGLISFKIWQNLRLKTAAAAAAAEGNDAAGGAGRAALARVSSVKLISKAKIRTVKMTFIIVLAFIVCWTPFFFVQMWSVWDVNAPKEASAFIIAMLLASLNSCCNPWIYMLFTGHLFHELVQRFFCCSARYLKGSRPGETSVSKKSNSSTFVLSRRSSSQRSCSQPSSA
- assay_explanation: Activity at oxytocin receptor in rat uterus
- Assay type: tissue-based
*1 amine or outer side, *2 acyl side, *3 side chain or, on linkers, in order; H or OH if unused. Where a SMILES comes first, the peptide text is derived from it. Bridges are numbered along the chain shown (N, C = ends). [ ]: non-standard residue; d: D form. Abu(4-yl) = O=C([C@H](CC[*:3])N[*:1])[*:2]; X1 = O=C([C@@H](O)CS[*:2])[*:1]; X2 = O=C(CCC[*:2])[*:1]; Mpa = O=C(O)CCS
Rule: Activity of 700 U/mg or more gives Met; anything lower gives Not met.

{"molecule": "CC[C@H](C)[C@@H]1NC(=O)[C@H](Cc2ccc(O)cc2)NC(=O)[C@@H](O)CSSC[C@@H](C(=O)N2CCC[C@H]2C(=O)N[C@@H](CC(C)C)C(=O)NCC(N)=O)NC(=O)[C@H](CC(N)=O)NC(=O)[C@H](CCC(N)=O)NC1=O (YIQNCPLG-NH2; linker N-5 via X1)", "class_label": "Met"}
{"molecule": "CC[C@H](C)[C@@H]1NC(=O)[C@H](Cc2ccc(O)cc2)NC(=O)[C@@H](O)CSSC[C@@H](C(=O)N2CCC[C@H]2C(=O)N[C@@H](CC(C)C)C(=O)NCC(N)=O)NC(=O)[C@H](CC(N)=O)NC(=O)[C@H]([C@@H](C)O)NC1=O (YITNCPLG-NH2; linker N-5 via X1)", "class_label": "Met"}
{"molecule": "CC[C@H](C)[C@@H]1NC(=O)[C@H](Cc2ccc(O)cc2)NC(=O)CCSSC[C@@H](C(=O)N2CCC[C@H]2C(=O)N[C@@H](CC(C)C)C(=O)NCC(N)=O)NC(=O)[C@H](CC(N)=O)NC(=O)[C@H]([C@@H](C)O)NC1=O ([Mpa]YITNCPLG-NH2; disulfide 1-6)", "class_label": "Not met"}
{"molecule": "CC[C@H](C)[C@@H]1NC(=O)[C@H](Cc2ccc(O)cc2)NC(=O)[C@@H](N)CCSC[C@@H](C(=O)N2CCC[C@H]2C(=O)N[C@@H](CC(C)C)C(=O)NCC(N)=O)NC(=O)[C@H](CC(N)=O)NC(=O)[C@H](CCC(N)=O)NC1=O (H-[Abu(4-yl)]YIQNCPLG-NH2; thioether 1-6)", "class_label": "Met"}
{"molecule": "CC[C@H](C)[C@@H]1NC(=O)[C@H](Cc2ccc(O)cc2)NC(=O)CCCSC[C@@H](C(=O)N2CCC[C@H]2C(=O)N[C@@H](CC(C)C)C(=O)NCC(N)=O)NC(=O)[C@H](CC(N)=O)NC(=O)[C@H](CCC(N)=O)NC1=O (YIQNCPLG-NH2; linker N-5 via X2)", "class_label": "Met"}

====

- Organism: Rattus norvegicus
- assay_explanation: Antidiuretic activity in rat
- Assay type: ADME, organism-based, Urine
- experimental_conditions: in vivo
*1 amine or outer side, *2 acyl side, *3 side chain or, on linkers, in order; H or OH if unused. Where a SMILES comes first, the peptide text is derived from it. Bridges are numbered along the chain shown (N, C = ends). X1 = O=C([C@@H](O)CS[*:2])[*:1]
Entries and their Activity

{"compound": "CC[C@H](C)[C@@H]1NC(=O)[C@H](Cc2ccc(O)cc2)NC(=O)CCSSC[C@@H](C(=O)N2CCC[C@H]2C(=O)N[C@@H](CC(C)C)C(=O)NCC(N)=O)NC(=O)[C@H](CC(N)=O)NC(=O)[C@H](CCC(N)=O)NC1=O", "Activity, U/mg": 19}
{"compound": "CC[C@H](C)[C@@H]1NC(=O)[C@H](Cc2ccc(O)cc2)NC(=O)[C@@H](N)CSSC[C@@H](C(=O)N2CCC[C@H]2C(=O)N[C@@H](CC(C)C)C(=O)NCC(N)=O)NC(=O)[C@H](CC(N)=O)NC(=O)[C@H]([C@@H](C)O)NC1=O (H-CYITNCPLG-NH2; disulfide 1-6)", "Activity, U/mg": 1.8}
{"compound": "CC[C@H](C)[C@@H]1NC(=O)[C@H](Cc2ccc(O)cc2)NC(=O)[C@@H](O)CSSC[C@@H](C(=O)N2CCC[C@H]2C(=O)N[C@@H](CC(C)C)C(=O)NCC(N)=O)NC(=O)[C@H](CC(N)=O)NC(=O)[C@H]([C@@H](C)O)NC1=O (YITNCPLG-NH2; linker N-5 via X1)", "Activity, U/mg": 5.3}
{"compound": "CC[C@H](C)[C@@H]1NC(=O)[C@H](Cc2ccc(O)cc2)NC(=O)[C@@H](O)CSSC[C@@H](C(=O)N2CCC[C@H]2C(=O)N[C@@H](CC(C)C)C(=O)NCC(N)=O)NC(=O)[C@H](CC(N)=O)NC(=O)[C@H](CCC(N)=O)NC1=O (YIQNCPLG-NH2; linker N-5 via X1)", "Activity, U/mg": 16.6}

====

- assayed_system: Oxytocin receptor (Rattus norvegicus) (UniProt P70536)
- assay_explanation: Activity at oxytocin receptor in rat uterus relative to oxytocin
- Format: tissue-based
*1 amine or outer side, *2 acyl side, *3 side chain or, on linkers, in order; H or OH if unused. Where a SMILES comes first, the peptide text is derived from it. Bridges are numbered along the chain shown (N, C = ends). X1 = O=C([C@@H](O)CS[*:2])[*:1]
This listing pairs compounds with measured Ratio.
measured_property: Ratio

{"compound": "CC[C@H](C)[C@@H]1NC(=O)[C@H](Cc2ccc(O)cc2)NC(=O)[C@@H](N)CSSC[C@@H](C(=O)N2CCC[C@H]2C(=O)N[C@@H](CC(C)C)C(=O)NCC(N)=O)NC(=O)[C@H](CC(N)=O)NC(=O)[C@H](CCC(N)=O)NC1=O", "assayed_system": "Oxytocin receptor (Rattus norvegicus) (UniProt P70536)", "measured_property": "Ratio", "comparison_sign": ">", "quantitative_result": 7}
{"compound": "CC[C@H](C)[C@@H]1NC(=O)[C@H](Cc2ccc(O)cc2)NC(=O)[C@@H](O)CSSC[C@@H](C(=O)N2CCC[C@H]2C(=O)N[C@@H](CC(C)C)C(=O)NCC(N)=O)NC(=O)[C@H](CC(N)=O)NC(=O)[C@H]([C@@H](C)O)NC1=O (YITNCPLG-NH2; linker N-5 via X1)", "assayed_system": "Oxytocin receptor (Rattus norvegicus) (UniProt P70536)", "measured_property": "Ratio", "comparison_sign": "=", "quantitative_result": 8}
{"compound": "CC[C@H](C)[C@@H]1NC(=O)[C@H](Cc2ccc(O)cc2)NC(=O)[C@@H](O)CSSC[C@@H](C(=O)N2CCC[C@H]2C(=O)N[C@@H](CC(C)C)C(=O)NCC(N)=O)NC(=O)[C@H](CC(N)=O)NC(=O)[C@H](CCC(N)=O)NC1=O (YIQNCPLG-NH2; linker N-5 via X1)", "assayed_system": "Oxytocin receptor (Rattus norvegicus) (UniProt P70536)", "measured_property": "Ratio", "comparison_sign": "=", "quantitative_result": 2.45}

====

- Species on record: Rattus norvegicus
- assay_explanation: Vasopressor activity in rat
- Type: ADME, organism-based
- experimental_conditions: in vivo
*1 amine or outer side, *2 acyl side, *3 side chain or, on linkers, in order; H or OH if unused. Where a SMILES comes first, the peptide text is derived from it. Bridges are numbered along the chain shown (N, C = ends). X2 = O=C(CCC[*:2])[*:1]
Each entry below carries its reported Activity.
measured_property: Activity (U/mg)

{"compound": "CC[C@H](C)[C@@H]1NC(=O)[C@H](Cc2ccc(O)cc2)NC(=O)CCCSC[C@@H](C(=O)N2CCC[C@H]2C(=O)N[C@@H](CC(C)C)C(=O)NCC(N)=O)NC(=O)[C@H](CC(N)=O)NC(=O)[C@H](CCC(N)=O)NC1=O (YIQNCPLG-NH2; linker N-5 via X2)", "quantity_unit": "U/mg", "quantitative_result": 17.5}
{"compound": "CC[C@H](C)[C@@H]1NC(=O)[C@H](Cc2ccc(O)cc2)NC(=O)[C@@H](N)CSSC[C@@H](C(=O)N2CCC[C@H]2C(=O)N[C@@H](CC(C)C)C(=O)NCC(N)=O)NC(=O)[C@H](CC(N)=O)NC(=O)[C@H]([C@@H](C)O)NC1=O (H-CYITNCPLG-NH2; disulfide 1-6)", "quantity_unit": "U/mg", "quantitative_result": 0.43}

====

- Species: Rattus norvegicus
- assay_explanation: Vasopressor activity in rat
- Format: ADME, organism-based
- experimental_conditions: in vivo
*1 amine or outer side, *2 acyl side, *3 side chain or, on linkers, in order; H or OH if unused. Where a SMILES comes first, the peptide text is derived from it. Bridges are numbered along the chain shown (N, C = ends). [ ]: non-standard residue; d: D form. X1 = O=C([C@@H](O)CS[*:2])[*:1]; Mpa = O=C(O)CCS
We begin with a simple list: items and their reported Activity.
measured_property: Activity (U/mg)

{"compound": "CC[C@H](C)[C@@H]1NC(=O)[C@H](Cc2ccc(O)cc2)NC(=O)[C@@H](O)CSSC[C@@H](C(=O)N2CCC[C@H]2C(=O)N[C@@H](CC(C)C)C(=O)NCC(N)=O)NC(=O)[C@H](CC(N)=O)NC(=O)[C@H]([C@@H](C)O)NC1=O (YITNCPLG-NH2; linker N-5 via X1)", "measured_property": "Activity", "comparison_sign": "=", "quantitative_result": 4.92}
{"compound": "CC[C@H](C)[C@@H]1NC(=O)[C@H](Cc2ccc(O)cc2)NC(=O)CCSSC[C@@H](C(=O)N2CCC[C@H]2C(=O)N[C@@H](CC(C)C)C(=O)NCC(N)=O)NC(=O)[C@H](CC(N)=O)NC(=O)[C@H]([C@@H](C)O)NC1=O ([Mpa]YITNCPLG-NH2; disulfide 1-6)", "measured_property": "Activity", "comparison_sign": "<", "quantitative_result": 0.1}
{"compound": "CC[C@H](C)[C@@H]1NC(=O)[C@H](Cc2ccc(O)cc2)NC(=O)CCSSC[C@@H](C(=O)N2CCC[C@H]2C(=O)N[C@@H](CC(C)C)C(=O)NCC(N)=O)NC(=O)[C@H](CC(N)=O)NC(=O)[C@H](CCC(N)=O)NC1=O [DEMOXYTOCIN]", "measured_property": "Activity", "comparison_sign": "=", "quantitative_result": 1.44}
